test system: OVCAR-4 ovarian; assay: NCI-60 one-dose screen, 48 h; details: 10 µM
The panel holds about 83,000 compounds, 20% with a hit somewhere; the sample as a whole holds those more often. Active and inactive are the calls of the source. Rule for the calls: active = growth percent below 10; inactive = the rest.
Outcome codes: active, inactive

| COMPOUND | EXPERIMENTAL_SYSTEM | LABEL_VALUE |
| --- | --- | --- |
| CCOC(=O)N/C(=C1/OCCN1C)[P+](c1ccccc1)(c1ccccc1)c1ccccc1 | OVCAR-4 ovarian | inactive |
| CC(=O)NCC1=C(C)C=C2C(=O)[C@](C)(O)C3(CC3)C(C)=C21 | OVCAR-4 ovarian | active |
| O=c1[nH]c2ccccc2cc1CSc1ccc(Nc2nccc(-c3ccc(C(F)(F)F)cc3)n2)cc1 | OVCAR-4 ovarian | active |
| COc1cccc(/C=C2\N=C(C)N(CCc3ccc(S(N)(=O)=O)cc3)C2=O)c1 | OVCAR-4 ovarian | inactive |
| COc1ccc(/C=C/C(=O)c2ccc(NC(=O)CN3C(=O)NC(C)(c4ccccc4)C3=O)cc2)cc1 (centres undefined) | OVCAR-4 ovarian | inactive |
| Cc1cc2nc3c4ccccc4n(CCO)c3nc2cc1C | OVCAR-4 ovarian | active |
| COc1ccc2nc(Nc3cccc(NC(=O)c4ccc(CN5CCN(C)CC5)c(C(F)(F)F)c4)c3)ccc2c1 | OVCAR-4 ovarian | active |
| Cc1ccc(/C=C(\C#N)n2nnc3c(F)cccc32)cc1 | OVCAR-4 ovarian | inactive |
| COc1ccc(CN2[C@H](C(=O)NCCCCCCC(=O)NO)Cc3c([nH]c4ccccc34)[C@H]2C2CC2)cc1 | OVCAR-4 ovarian | inactive |
